From: ChEMBL document CHEMBL1132287

# Test name: Inhibition of integrin alpha1-beta1 adhesion using K562 cells expressing alpha-1
# Type: cell-based, Homo sapiens
pIC50: −log10 of the molar value. *1 amine or outer side, *2 acyl side, *3 side chain or, on linkers, in order; H or OH if unused. Where a SMILES comes first, the peptide text is derived from it. [ ]: non-standard residue; d: D form. The star is where a group is joined. X1 = O=C(Cc1ccc(N[*:1])cc1)[*:2]; NH(2-Me-phenyl) = Cc1ccccc1N*; CO = O=C([*:1])[*:2]
Reported metric: pIC50

Entry under review: Cc1ccccc1NC(=O)Nc1ccc(CC(=O)N[C@@H](CC(C)C)C(=O)N[C@@H](CC(=O)O)C(=O)O)cc1 . Reported pIC50?
< 4.00

Entry under review: Cc1ccccc1NC(=O)Nc1ccc(CC(=O)N[C@@H](CC(C)C)C(=O)N[C@@H](CC(=O)O)C(=O)N[C@H](C(=O)N2CCC[C@H]2C(=O)O)C(C)C)cc1 ({NH(2-Me-phenyl)-CO}-[X1]LDVP-OH) . Reported pIC50?
< 4.00
